Values from paper PMC11550483

Reported % inhibition (20 µM) biochemical by item:
tgt: SARS2 M^pro (Severe acute respiratory syndrome coronavirus 2, UniProt P0DTD1, P3395H)
Type: biochemical, SARS-CoV-2
Please reply with the bare figure in % and do not write the unit itself.

stdin: Field: % inhibition (20 µM) biochemical (SARS2 M^pro (Severe acute respiratory syndrome coronavirus 2, UniProt P0DTD1, P3395H)). Entry: `Cc1cc(C(=O)COn2nnc3ccc(Cl)cc32)c(C)n1-c1ccc2c(c1)OCO2`
stdout: 26

stdin: One more molecule: COc1ccc(C2=NN3C(C2)c2ccccc2OC32C(=O)Nc3ccccc32)cc1OC (stereo not shown)
stdout: 0.611

stdin: One more molecule: COc1ccc(C2=NN3C(C2)c2ccccc2OC3C(C)C)cc1 (stereo not shown)
stdout: 7

stdin: One more molecule: `CC(C)c1cc(C(=O)Nc2ccc(Br)cc2)no1`
stdout: 6

stdin: One more molecule: `Cc1ccc(NC(=S)Nc2ccccc2)nc1`
stdout: 2.27

stdin: One more molecule: CC(=O)C1=C(O)C(=O)N(c2ccc(Br)cn2)C1c1ccc(Cl)cc1 (stereo not shown)
stdout: 16

stdin: One more molecule: `Cc1cccc(/N=C2/NC(=O)/C(=C\c3ccc(N(C)C)cc3)S2)c1`
stdout: 9

stdin: One more molecule: CC1=C(C(=O)OC(C)C)C(c2ccc(F)cc2)C2=C(CC(c3cccs3)CC2=O)N1 (stereo not shown)
stdout: 0

stdin: One more molecule: O=C(CCl)NC(c1ccccc1)c1ccc(Cl)cc1 (stereo not shown)
stdout: 67

stdin: One more molecule: `O=C1C(=O)N(Cc2ccc([N+](=O)[O-])cc2)c2ccc(Br)cc21`
stdout: 65

###

tgt: SARS2 M^pro (Severe acute respiratory syndrome coronavirus 2, UniProt P0DTD1, P3395H)
Format: biochemical, SARS-CoV-2
readout-type: % inhibition (20 µM) biochemical

Below, each entry is followed by its recorded % inhibition (20 µM) biochemical result.
{"compound": "O=C(Nc1nc2ccccc2[nH]1)c1ccc(Br)o1 [MWAC-0001805, Brc1oc(cc1)C(=O)Nc2nc3ccccc3[nH]2]", "tgt": "SARS2 M^pro (Severe acute respiratory syndrome coronavirus 2, UniProt P0DTD1, P3395H)", "readout-type": "% inhibition (20 µM) biochemical", "result": "9%"}
{"compound": "CCCOc1ccc(CN2C(=O)C(=O)c3ccccc32)cc1 [MWAC-0001830, CCCOc1ccc(CN2C(=O)C(=O)c3ccccc23)cc1]", "tgt": "SARS2 M^pro (Severe acute respiratory syndrome coronavirus 2, UniProt P0DTD1, P3395H)", "readout-type": "% inhibition (20 µM) biochemical", "result": "5%"}
{"compound": "COc1cc(CSc2nnc[nH]2)c(OC)cc1CSc1nnc[nH]1 [MWAC-0001824, COc1cc(CSc2nnc[nH]2)c(OC)cc1CSc3nnc[nH]3]", "tgt": "SARS2 M^pro (Severe acute respiratory syndrome coronavirus 2, UniProt P0DTD1, P3395H)", "readout-type": "% inhibition (20 µM) biochemical", "result": "0%"}
{"compound": "CCOc1ccc2nc(SC3CC(=O)N(c4ccccc4C(F)(F)F)C3=O)sc2c1 (stereo not drawn) [MWAC-0001714]", "tgt": "SARS2 M^pro (Severe acute respiratory syndrome coronavirus 2, UniProt P0DTD1, P3395H)", "readout-type": "% inhibition (20 µM) biochemical", "result": "6%"}
{"compound": "Cc1ccc2nc(-c3ccc(NC(=O)CCOc4ccccc4)cc3)sc2c1 [MWAC-0001713]", "tgt": "SARS2 M^pro (Severe acute respiratory syndrome coronavirus 2, UniProt P0DTD1, P3395H)", "readout-type": "% inhibition (20 µM) biochemical", "result": "14%"}
{"compound": "COc1ccc(CC(=O)N2CCC3(CC2)NC(=O)c2cc(Br)ccc2N3)cc1 [MWAC-0001841]", "tgt": "SARS2 M^pro (Severe acute respiratory syndrome coronavirus 2, UniProt P0DTD1, P3395H)", "readout-type": "% inhibition (20 µM) biochemical", "result": "0%"}
{"compound": "CCOC(=O)c1[nH]c(C)c(C(=O)Nc2ccccc2SC)c1C [MWAC-0001737, CCOC(=O)c1[nH]c(C)c(C(=O)Nc2ccccc2SC)c1C]", "tgt": "SARS2 M^pro (Severe acute respiratory syndrome coronavirus 2, UniProt P0DTD1, P3395H)", "readout-type": "% inhibition (20 µM) biochemical", "result": "3.56%"}
{"compound": "O=C1OC(NC(=O)c2ccccc2)C(NC(=O)c2ccccc2)=C1Cl (stereo not drawn) [MWAC-0001833]", "tgt": "SARS2 M^pro (Severe acute respiratory syndrome coronavirus 2, UniProt P0DTD1, P3395H)", "readout-type": "% inhibition (20 µM) biochemical", "result": "4%"}
{"compound": "CCOc1ccccc1C1CC(c2ccccc2)Nc2ncnn21 (stereo not drawn) [MWAC-0001745, CCOc1ccccc1C2CC(Nc3ncnn23)c4ccccc4]", "tgt": "SARS2 M^pro (Severe acute respiratory syndrome coronavirus 2, UniProt P0DTD1, P3395H)", "readout-type": "% inhibition (20 µM) biochemical", "result": "5.37%"}
{"compound": "Cc1cc(C(=O)CCl)c(C)n1CCc1cccs1 [MWAC-0001825, Cc1cc(C(=O)CCl)c(C)n1CCc2cccs2]", "tgt": "SARS2 M^pro (Severe acute respiratory syndrome coronavirus 2, UniProt P0DTD1, P3395H)", "readout-type": "% inhibition (20 µM) biochemical", "result": "56%"}

stdin: Fill in the blank: the reported % inhibition (20 µM) biochemical of CCOC(=O)/C=C(\C)N1N=C(c2ccccc2)CC1c1ccc(N(C)C)cc1 (stereo not drawn) [MWAC-0001831] is ____.
stdout: 5.67%

stdin: One more compound: CCCCN1C(=O)C(O)(CC(=O)c2cccc(OC)c2)c2cc(Br)ccc21 (stereo not drawn) [MWAC-0001744]
stdout: 10%

###

tgt: SARS2 M^pro (Severe acute respiratory syndrome coronavirus 2, UniProt P0DTD1, P3395H)
Assay type: biochemical, SARS-CoV-2
Reported % inhibition (20 µM) biochemical by item:
Please reply with the bare figure in % and do not write the unit itself.

Below, each entry is followed by its recorded % inhibition (20 µM) biochemical result.
{"mol-smiles": "COc1cccc(Nc2ccc3ccccc3c2)c1", "readout-type": "% inhibition (20 µM) biochemical", "numeric-readout": 0}
{"mol-smiles": "O=C1/C(=C/c2ccc3c(c2)OCO3)SC(=S)N1Cc1cccnc1", "readout-type": "% inhibition (20 µM) biochemical", "numeric-readout": 14}

Could you now look at the following molecule, please?
stdin: Fill in the blank: the reported % inhibition (20 µM) biochemical of `O=[N+]([O-])c1cc(C(F)(F)F)ccc1NCCNS(=O)(=O)Cc1ccccc1` is ____.
stdout: 3.51

###

tgt: SARS2 M^pro (Severe acute respiratory syndrome coronavirus 2, UniProt P0DTD1, P3395H)
Type: biochemical, SARS-CoV-2
Classify as follows. Reported % inhibition (20 µM) biochemical greater than or equal to 5%: 1. Reported % inhibition (20 µM) biochemical below: 0.

{"compound": "COc1ccc(CC(=O)NCc2ccccc2Cl)cc1 [MWAC-0001807, COc1ccc(CC(=O)NCc2ccccc2Cl)cc1]", "assigned-label": 0}
{"compound": "CCOc1ccc(-c2nc(CSc3nnc(N)[nH]3)cs2)cc1 [MWAC-0001853, CCOc1ccc(cc1)c2nc(CSc3nnc(N)[nH]3)cs2]", "assigned-label": 0}
{"compound": "CN(C)c1ccc(/C=N\\Nc2cn[nH]c(=O)c2Cl)cc1 [MWAC-0001746, CN(C)c1ccc(\\C=N/NC2=C(Cl)C(=O)NN=C2)cc1]", "assigned-label": 1}

stdin: Evaluate O=C(CCCN1C(=O)/C(=C\c2ccco2)SC1=S)Nc1cc(Cl)ccc1O [MWAC-0000351] : % inhibition (20 µM) biochemical at minimum 5%?
stdout: 0

###

tgt: SARS2 M^pro (Severe acute respiratory syndrome coronavirus 2, UniProt P0DTD1, P3395H)
Type: biochemical, SARS-CoV-2
readout-type: % inhibition (20 µM) biochemical (%)
Please reply with the bare figure in % and do not write the unit itself.

{"mol-smiles": "CCOC(=O)c1ccc(NC(=O)N2CCc3ccccc32)cc1", "readout-type": "% inhibition (20 µM) biochemical", "numeric-readout": 3.21}
{"mol-smiles": "Cc1ccc(OCCN2C(=O)C(=O)c3ccccc32)cc1", "readout-type": "% inhibition (20 µM) biochemical", "numeric-readout": 4.54}

Could you now look at the following compound, please?
stdin: Fill in the blank: the reported % inhibition (20 µM) biochemical of `COc1ccc(-c2nnc(SCc3ccc4c(c3)OCO4)n2-c2ccccc2)cc1` is ____.
stdout: 0

###

Reported % inhibition (20 µM) biochemical by item:
tgt: SARS2 M^pro (Severe acute respiratory syndrome coronavirus 2, UniProt P0DTD1, P3395H)
Format: biochemical, SARS-CoV-2
Please reply with the bare figure in % and do not write the unit itself.

Below, each entry is followed by its recorded % inhibition (20 µM) biochemical result.
{"compound": "CCOC(=O)C(=O)Nc1sc(C(=O)Nc2cccc(Cl)c2)c(C)c1C(=O)OC", "tgt": "SARS2 M^pro (Severe acute respiratory syndrome coronavirus 2, UniProt P0DTD1, P3395H)", "readout-type": "% inhibition (20 µM) biochemical", "result-units": "%", "numeric-readout": 5.71}
{"compound": "C#CCN1C(=O)C(O)(CC(=O)c2ccc(F)cc2)c2ccccc21 (stereo not drawn)", "tgt": "SARS2 M^pro (Severe acute respiratory syndrome coronavirus 2, UniProt P0DTD1, P3395H)", "readout-type": "% inhibition (20 µM) biochemical", "result-units": "%", "numeric-readout": 8}

Could you now look at the following compound, please?
stdin: Fill in the blank: the reported % inhibition (20 µM) biochemical of `O=C1NC(=S)NC(=O)C1=Cc1cccc(OS(=O)(=O)c2ccc3ccccc3c2)c1` is ____.
stdout: 15
